Here the recorded Neutralization IC50, H1-BJ95 is given for each entry.
biological target: HA of ca A/Beijing/262/95 (H1N1) virus (influenza A virus); test: cell-based or functional assay

binder	Neutralization IC50, H1-BJ95 / µg/mL
Antibody 8 (antibody, V domains shown) VH: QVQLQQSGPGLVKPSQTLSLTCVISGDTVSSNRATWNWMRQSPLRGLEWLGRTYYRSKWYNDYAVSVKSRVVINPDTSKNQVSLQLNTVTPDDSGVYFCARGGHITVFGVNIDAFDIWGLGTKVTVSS VL: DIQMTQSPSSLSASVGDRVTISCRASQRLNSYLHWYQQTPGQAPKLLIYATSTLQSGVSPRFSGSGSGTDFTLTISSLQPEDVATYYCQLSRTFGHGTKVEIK	10.6
Antibody 5 (antibody, V domains shown) VH: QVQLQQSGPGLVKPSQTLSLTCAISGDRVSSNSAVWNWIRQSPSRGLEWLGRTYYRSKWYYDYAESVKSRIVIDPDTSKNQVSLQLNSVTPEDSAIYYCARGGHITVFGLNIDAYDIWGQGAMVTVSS VL: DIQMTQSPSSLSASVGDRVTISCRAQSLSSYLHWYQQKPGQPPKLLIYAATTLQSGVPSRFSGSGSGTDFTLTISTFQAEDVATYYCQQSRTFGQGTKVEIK	5.06
Antibody 10 (antibody, V domains shown) VH: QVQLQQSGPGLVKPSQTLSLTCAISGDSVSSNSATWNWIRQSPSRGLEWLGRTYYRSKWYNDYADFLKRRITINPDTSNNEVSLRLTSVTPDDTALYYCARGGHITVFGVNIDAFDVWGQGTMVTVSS VL: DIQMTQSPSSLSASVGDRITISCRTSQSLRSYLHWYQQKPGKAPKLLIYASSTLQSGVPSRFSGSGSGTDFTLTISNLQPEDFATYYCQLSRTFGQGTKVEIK	4.46
Antibody 6 (antibody, V domains shown) VH: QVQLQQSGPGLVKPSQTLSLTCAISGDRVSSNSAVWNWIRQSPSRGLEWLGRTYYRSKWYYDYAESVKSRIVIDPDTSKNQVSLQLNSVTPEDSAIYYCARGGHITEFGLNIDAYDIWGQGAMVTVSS VL: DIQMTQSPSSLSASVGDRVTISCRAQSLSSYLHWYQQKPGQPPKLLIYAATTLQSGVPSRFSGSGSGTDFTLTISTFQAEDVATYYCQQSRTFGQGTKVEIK	20.9
